Origin of measurements: patent US20070082883A1

Notes on pKi obtained with HIV-1 protease (Human immunodeficiency virus type 1 group M subtype B, UniProt P04585).
Units for pKi: none; it is -log10 of a concentration expressed in mol/L.

Look over these answered cases.
**Q:** What reported pKi corresponds to O=C(N[C@@H](Cc1ccccc1)[C@H](O)CN1CCCCCCCCCCOc2cccc(c2)S1(=O)=O)O[C@@H]1CC2CCO[C@@H]2C1 (stereo partly drawn) on HIV-1 protease (Human immunodeficiency virus type 1 group M subtype B, UniProt P04585)?
**A:** 8.47

**Q:** Request: pKi, test system HIV-1 protease (Human immunodeficiency virus type 1 group M subtype B, UniProt P04585), entry COc1ccc(S(=O)(=O)N(CC(C)C)C[C@H](O)[C@H](Cc2ccc(OCc3ccccc3)cc2)NC(=O)OC(C)(C)C)cc1
**A:** 8.03

Further cases:
**Q:** # value lookup — system HIV-1 protease (Human immunodeficiency virus type 1 group M subtype B, UniProt P04585), readout pKi, item O=C(N[C@@H](Cc1ccccc1)[C@H](O)CN1CCCCCCCCCOc2cccc(c2)S1(=O)=O)O[C@H]1CO[C@H]2OCCC21 (stereo partly drawn) [Compound 225b]
**A:** 8.62

* * *

Parameter log10 of IC50: see the listing below.
- TEST TARGET: HIV-1 protease (Human immunodeficiency virus type 1 group M subtype B, UniProt P04585)
- Construct: made in house; host or cells: E. coli BL21 (dE3)pLysS, pET30a vector
- ASSAY COMMENT: HIV-1 Protease Inhibition Assay
- Type: biochemical
- ASSAY CONTEXT: fluorogenic substrate assay
Values are log10 of IC50 in µM.

Some entries whose results are on file:
**Q:** Field request: log10 of IC50 | item: CC(C)CN(C[C@@H](O)[C@H](Cc1ccccc1)NC(=O)OC1CC2CCO[C@@H]2C1)S(=O)(=O)c1ccc(F)c(N)c1 (stereo partly drawn)
**A:** -2.19

**Q:** Entry CC(C)CN(C[C@@H](O)[C@H](Cc1ccccc1)NC(=O)OC1CCCC12CCCO2)S(=O)(=O)c1cccc(O)c1 (stereo partly drawn) : reported log10 of IC50 = ?
**A:** -2.17

**Q:** Consider the compound shown here: Cc1ccc(S(=O)(=O)N(CC(C)C)C[C@@H](O)[C@H](CC2CCN(Cc3ccccc3)CC2)NC(=O)OC2CO[C@H]3OCCC23)cc1 (stereo partly drawn) What is its recorded log10 of IC50?
**A:** -1.70

**Q:** Any idea what log10 of IC50 was measured for COc1ccc(S(=O)(=O)N(C[C@@H]2CCC(=O)N2)C[C@@H](O)[C@H](Cc2ccccc2)NC(=O)OC(C)(C)C)cc1 ?
**A:** -2.47

**Q:** # query: log10 of IC50 of entry Cc1ccc(S(=O)(=O)N(CC(C)C)C[C@@H](O)[C@H](Cc2ccccc2)NC(=O)OC2CC3CCO[C@@H]3C2)cc1 (stereo partly drawn)
**A:** -2.85

Further cases:
**Q:** Please report the recorded log10 of IC50 for CC(C)(C)NC(=O)[C@@H]1C[C@@H]2CCCC[C@@H]2CN1C[C@@H](O)[C@H](Cc1ccccc1)NC(=O)OC1CCCC12CCCO2 (single isomer, unassigned) [Compound 145] .
**A:** -1.02

**Q:** Query (compound): O=C(N[C@@H](Cc1ccccc1)[C@H](O)CN(CCN1CCOCC1)S(=O)(=O)c1ccc(Cl)c(O)c1)OC1CO[C@H]2OCCC12 (stereo partly drawn) ; field requested: log10 of IC50
**A:** -1.60

**Q:** Please look up its log10 of IC50: COc1ccc(S(=O)(=O)N(C[C@@H]2CCC(=O)N2)C[C@@H](O)[C@H](Cc2ccccc2)NC(=O)OC2CC[C@H]3OCC[C@@H]23)cc1 (stereo partly drawn)
**A:** -3.80

**Q:** Request the reported log10 of IC50 associated with CC(C)CN(C[C@@H](O)[C@H](Cc1ccccc1)NC(=O)OC1CC2CCO[C@@H]2C1)S(=O)(=O)c1ccc(CN(C)C)cc1 (stereo partly drawn)
**A:** -1.30

**Q:** Name the recorded log10 of IC50 for O=C1CC[C@@H](CN(C[C@@H](O)[C@H](Cc2ccccc2)NC(=O)OC2CO[C@H]3OCC[C@@H]23)S(=O)(=O)c2ccc([N+](=O)[O-])cc2)N1 (stereo partly drawn) .
**A:** -3.43

**Q:** Quick one: log10 of IC50 for CC(C)CN(C[C@@H](O)[C@H](Cc1ccccc1)NC(=O)OC(C)(C)C)C1CC2(CCCC2)NC1=O (stereo partly drawn) [Compound 528b] ?
**A:** -0.41
